Ref: patent US20130123181A1

Molecular target: T1, recombinant HLA-DRB1*1101 protein (human)
T1 chain 1: not shown
T1 chain 2: not shown
Settings: remark: other sources report otherwise
ENDPOINT NAME: IC50

Which IC50 reading was recorded for the binder ENRSWYLTENIQRFLPNPAG [FVIII-A2 peptide 581-600] ?
100 µM
